| sampleSmiles | melting point |
| --- | --- |
| N#Cc1cnc2c(cc([N+](=O)[O-])c3nncc32)c(-c2ccccc2Cl)n1 | 193 to 196 °C |
| NC(=O)c1cnc2c(cc([N+](=O)[O-])c3nncc32)c(-c2ccccc2Cl)n1 | > 340 °C |
| Clc1ccccc1-c1nccnc2c1cc(Cl)c1nncc12 | > 300 °C |
| Cc1cnc2c(cc(C(N)=O)c3nncc32)c(-c2ccccc2F)n1 | 323 to 324 °C |
| Cc1cnc2c(cc(N)c3nncc32)c(-c2ccccc2Cl)n1 | 260 to 263 °C |
| Cc1cnc2c(cc(NS(C)(=O)=O)c3nncc32)c(-c2ccccc2Cl)n1 | 196 to 198 °C |

----------
- testSystem: Recombinant active human Cyclin E/CDK2 complexes (Homo sapiens, UniProt P24941)
- assayOverview: CDK2 FlashPlate Assay (inhibition of Rb phosphorylation)
- testContext: Cyclin E/CDK2, Rb substrate, 33P-ATP, 25 minutes at room temperature; read-out: Inhibition of Cdk2 - IC50 Range
The following compounds are listed with their measured IC50 values.
observedProperty: IC50

| compound | observedProperty | observedResult |
| --- | --- | --- |
| O=[N+]([O-])c1ccc2c(c1)C(c1ccccc1Cl)=Nc1c(n[nH]c1-c1c[nH]cn1)N2 | IC50 | 10 to 990 nM |
| Cc1[nH]nc2c1N=C(c1ccccc1F)c1ccccc1N2 | IC50 | 10 to 990 nM |
| Fc1ccc2c(c1)C(c1ccccc1F)=Nc1c[nH]nc1N2 | IC50 | 1000 to 9990 nM |
| O=[N+]([O-])c1ccc2c(c1)C(c1ccccc1Cl)=Nc1c(n[nH]c1Cc1ccccc1)N2 | IC50 | 1000 to 9990 nM |
| O=C(O)c1ccc2c(c1)C(c1ccccc1F)=Nc1c[nH]nc1N2 | IC50 | 1000 to 9990 nM |
| Clc1ccc2c(c1)C(c1ccccc1Cl)=Nc1c[nH]nc1N2 | IC50 | 10000 to 30000 nM |
| O=[N+]([O-])c1ccc2c(c1)C(c1ccccc1Cl)=Nc1c(n[nH]c1CCc1ccccc1)N2 | IC50 | 1000 to 9990 nM |
| CC(C)c1[nH]nc2c1N=C(c1ccccc1Cl)c1cc([N+](=O)[O-])ccc1N2 | IC50 | 10 to 990 nM |
| Cc1[nH]nc2c1N=C(c1ccccc1Cl)c1cc(Cl)ccc1N2 | IC50 | 10 to 990 nM |
| Cc1ccc(-c2[nH]nc3c2N=C(c2ccccc2Cl)c2cc([N+](=O)[O-])ccc2N3)cc1 | IC50 | 1000 to 9990 nM |
| NC(=O)c1ccc2c(c1)C(c1ccccc1F)=Nc1c[nH]nc1N2 | IC50 | 10 to 990 nM |
| Cc1[nH]nc2c1N=C(c1ccccc1C(F)(F)F)c1cc([N+](=O)[O-])ccc1N2 [Compound D2] | IC50 | 10 to 990 nM |
| CN(C)c1ccc(-c2[nH]nc3c2N=C(c2ccccc2Cl)c2cc([N+](=O)[O-])ccc2N3)cc1 | IC50 | 1000 to 9990 nM |
| O=[N+]([O-])c1ccc2c(c1)C(c1ccccc1Cl)=Nc1c(n[nH]c1-c1cccs1)N2 | IC50 | 10 to 990 nM |
| O=[N+]([O-])c1ccc2c(c1)C(c1ccccc1)=Nc1c(n[nH]c1C1CC1)N2 | IC50 | 10 to 990 nM |
| CCCc1[nH]nc2c1N=C(c1ccccc1Cl)c1cc([N+](=O)[O-])ccc1N2 | IC50 | 10 to 990 nM |
| CCOC(=O)c1[nH]nc2c1N=C(c1ccccc1Cl)c1cc([N+](=O)[O-])ccc1N2 | IC50 | 1000 to 9990 nM |
